Tested on: HPPD polypeptides (wild-type SEQ ID NO:1 and mutants)
REPORTED CONDITIONS: kapp in presence of 50 μM Cmpd. 1, normalised to kapp without inhibitor; low substrate concentration
ENDPOINT NAME: Residual activity
The answer should read as a number with its unit following.

Which value of Residual activity has been reported for 46 (protein, mutant HPPD polypeptide) MADLYENPMGLMGFEFIEFASPTPGTLEPIFEIMGFTKVATHRSKNVHLYRQGEINLILNNEPNSIASYFAAEHGPSVCGMAFRVKDSQKAYNRALELGAQPIHIDTGPMELNLPAIKGIGGAPLYLIDRFGEGSSIYDIDFVYLEGVERNPVGAGLKVIDHLTHNVYRGRMVYWANFYEKLFNFREARYFDIKGEYTGLTSKAMSAPDGMIRIPLNEESSKGAGQIEEFLMQFNGEGIQHVAFLTDDLVKTWDALKKIGMRFMTAPGDEYYEMLEGRLPDHGEPVDQLQARGILLDGSSVEGDKRLLLQIFSEMLMGPVFFEFIQRKGDDGFGPDSFKVLFESVERDQVRRGVLTAD in the records? 32%

What do you get for 44 (protein, mutant HPPD polypeptide) MADLYENPMGLMGFEFIEFASPTPGTLEPIFEIMGFTKVATHRSKNVHLYRQGEINLILNNEPNSIASYFAAEHGPSVCGMAFRVKDSQKAYNRALELGAQPIHIDTGPMELNLPAIKGIGGAPLYLIDRFGEGSSIYDIDFVYLEGVERNPVGAGLKVIDHLTHNVYRGRMVYWANFYEKLFNFREARYFDIKGEYTGLTSKAMSAPDGMILIPLNEESSKGAGQIEEFLMQFNGEGIQHVAFLTDDLVKTWDALKKIGMRFMTAPGDEYYEMLEGRLPDHGEPVDQLQARGILLDGSSVEGDKRLLLQIFSETLMGPVFFEFIQRKGDDGFGPDSFKVLFESVERDQVRRGVLTAD ? 58%

What about this molecule? 81 (protein, mutant HPPD polypeptide) MADLYENPMGLMGFEFIEFASPTPGTLEPIFEIMGFTKVATHRSKNVHLYRQGEINLILNNEPNSIASYFAAEHGPSVCGMAFRVKDSQKAYNRALELGAQPIHIDTGPMELNLPAIKGIGGAPLYLIDRFGEGSSIYDIDFVYLEGVERNPVGAGLKVIDHLTHNVYRGRMVYWANFYEKLFNFREARYFDIKGEYTGLTSKAMSAPDGMIRIPLNEESSKGAGQIEEFLMQFNGEGIQHVAFLTDDLVKTWDALKKIGMRFMTAPGDEYYEMLEGRLPDHGEPVDQLQARGILLDGSSVEGDKRLLLQIFSETLMGPVFFEFIQRKGDDGFGPDSFKALFESVERDQVRRGVLTAD 17%

Next record, please: 45 (protein, mutant HPPD polypeptide) MADLYENPMGLMGFEFIEFASPTPGTLEPIFEIMGFTKVATHRSKNVHLYRQGEINLILNNEPNSIASYFAAEHGPSVCGMAFRVKDSQKAYNRALELGAQPIHIDTGPMELNLPAIKGIGGAPLYLIDRFGEGSSIYDIDFVYLEGVERNPVGAGLKVIDHLTHNVYRGRMVYWANFYEKLFNFREARYFDIKGEYTGLTSKAMSAPDGMIRIPLNEESSKGAGQIEEFLMQFNGEGIQHVAFLTDDLVKTWDALKKIGMRFMTAPGDEYYEMLEGRLPDHGEPVDQLQARGILLDGSSVEGDKRLLLQIFSERLMGPVFFEFIQRKGDDGFGPDSFKVLFESVERDQVRRGVLTAD 39%

What about 52 (protein, mutant HPPD polypeptide) MADLYENPMGLMGFEFIEFASPTPGTLEPIFEIMGFTKVATHRSKNVHLYRQGEINLILNNEPNSIASYFAAEHGPSVCGMAFRVKDSQKAYNRALELGAQPIHIDTGPMELNLPAIKGIGGAPLYLIDRFGEGSSIYDIDFVYLEGVERNPVGAGLKVIDHLTHNVYRGRMVYWANFYEKLFNFREARYFDIKGEYTGLTSKAMSAPDGMIRIPLNEESSKGAGQIEEFLMQFNGEGIQHVAFLTDDLVKTWDALKKIGMRFMTAPGDEYYEMLEGRLPDHGEPVDQLQARGILLDGSSVEGDKRLLLQIFSETLMGPVFFEFIQRKGDSGFGPDSFKVLFESVERDQVRRGVLTAD ? 31%

Same again, this time with 59 (protein, mutant HPPD polypeptide) MADLYENPMGLMGFEFIEFASPTPGTLEPIFEIMGFTKVATHRSKNVHLYRQGEINLILNNEPNSIASYFAAEHGPSVCGMAFRVKDSQKAYNRALELGAQPIHIDTGPMELNLPAIKGIGGAPLYLIDRFGEGSSIYDIDFVYLEGVERNPVGAGLKVIDHLTHNVYRGRMVYWANFYEKLFNFREARYFDIKGEYTGLTSKAMSAPDGMIRIPLNEESSKGAGQIEEFLMQFNGEGIQHVAFLTDDLVKTWDALKKIGMRFMTAPGDEYYEMLEGRLPDHGEPVDQLQARGILLDGSSVEGDKRLLLQIFSETLMGPVFFEFIQRKGDDGFGPDSFKVLFERVERDQVRRGVLTAD 19%
